# testedTarget: Yer184c (UniProt P39961)
# Sequence: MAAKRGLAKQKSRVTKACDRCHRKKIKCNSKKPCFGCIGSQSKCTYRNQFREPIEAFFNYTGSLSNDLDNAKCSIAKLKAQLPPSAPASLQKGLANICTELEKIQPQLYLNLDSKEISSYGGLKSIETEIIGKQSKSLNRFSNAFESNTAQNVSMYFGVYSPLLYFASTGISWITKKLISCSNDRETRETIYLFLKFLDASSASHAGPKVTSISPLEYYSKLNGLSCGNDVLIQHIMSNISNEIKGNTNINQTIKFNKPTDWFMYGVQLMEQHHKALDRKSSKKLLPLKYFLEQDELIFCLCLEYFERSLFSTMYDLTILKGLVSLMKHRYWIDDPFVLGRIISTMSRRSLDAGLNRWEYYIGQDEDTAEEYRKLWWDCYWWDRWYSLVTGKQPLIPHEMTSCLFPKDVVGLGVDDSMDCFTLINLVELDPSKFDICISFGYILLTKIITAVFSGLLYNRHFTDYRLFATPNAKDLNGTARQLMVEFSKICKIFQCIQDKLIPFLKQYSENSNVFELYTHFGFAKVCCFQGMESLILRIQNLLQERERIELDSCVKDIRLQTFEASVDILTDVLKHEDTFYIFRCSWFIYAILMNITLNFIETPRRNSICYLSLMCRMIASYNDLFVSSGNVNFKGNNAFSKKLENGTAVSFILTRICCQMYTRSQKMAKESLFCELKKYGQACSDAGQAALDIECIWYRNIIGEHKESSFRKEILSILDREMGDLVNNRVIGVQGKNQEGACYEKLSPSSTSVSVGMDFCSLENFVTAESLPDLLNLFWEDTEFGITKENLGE
# measurementProtocol: PBM E-score (8-mer binding enrichment) (E-score (-0.5 to 0.5)); higher = stronger / more preferred TF binding
# conditionSummary: protein concentration: 100 nM; construct: GST-full length
Whole data set: some 33,000 sequences, median “E-score (-0.5 to 0.5)” near -0.016, cut for the highest 2% near 0.3. The sample holds the highest values, similar sequences and a random draw of the others, so the mix is not that of the screen.
propertyName: PBM E-score
Lab note: jot the number down without any unit.

// known answers, use as guide
Inquiry: I'd like to know its PBM E-score. The sequence in question is AGCGCCGC
Reply text: 0.0842

Inquiry: I'd like to know its PBM E-score. The sequence in question is TCCCGGCA
Reply text: 0.256

Inquiry: I'd like to know its PBM E-score. The sequence in question is TAGCGAGA
Reply text: 0.00559

Inquiry: I'd like to know its PBM E-score. The sequence in question is CGAGGATC
Reply text: 0.0927

Inquiry: I'd like to know its PBM E-score. The sequence in question is AACGCGGA
Reply text: 0.178

More entries:
Inquiry: I'd like to know its PBM E-score. The sequence in question is AACCGGCT
Reply text: 0.264

Inquiry: I'd like to know its PBM E-score. The sequence in question is AATATTAT
Reply text: 0.293

Inquiry: I'd like to know its PBM E-score. The sequence in question is CACCAGGC
Reply text: -0.103

Inquiry: I'd like to know its PBM E-score. The sequence in question is CGTATAAC
Reply text: 0.106

Inquiry: I'd like to know its PBM E-score. The sequence in question is AAACTAGC
Reply text: -0.093

Inquiry: I'd like to know its PBM E-score. The sequence in question is TGTATAAA
Reply text: 0.0524

Inquiry: I'd like to know its PBM E-score. The sequence in question is GCTATCCC
Reply text: -0.16

Inquiry: I'd like to know its PBM E-score. The sequence in question is GGATTCCC
Reply text: -0.173

Inquiry: I'd like to know its PBM E-score. The sequence in question is ACTAAGGC
Reply text: -0.0457

Inquiry: I'd like to know its PBM E-score. The sequence in question is AGCCGGTG
Reply text: 0.225

Inquiry: I'd like to know its PBM E-score. The sequence in question is GCCGCGGA
Reply text: 0.386

Inquiry: I'd like to know its PBM E-score. The sequence in question is TACCGGCA
Reply text: 0.251

Inquiry: I'd like to know its PBM E-score. The sequence in question is AGTATATA
Reply text: 0.334

Inquiry: I'd like to know its PBM E-score. The sequence in question is CCCACGGA
Reply text: 0.157

Inquiry: I'd like to know its PBM E-score. The sequence in question is ACCCGGCT
Reply text: 0.22

Inquiry: I'd like to know its PBM E-score. The sequence in question is CGCGCCGA
Reply text: 0.256
